Values from PubChem BioAssay (NCATS)

test: qHTS Assay for Lipid Storage Modulators (AID 1519); settings: Drosophila S3 cells, BODIPY lipid droplet/cell ratio, laser cytometry; at 25.7 µM (top of the series); cells loaded with oleic acid; as to activity change, negative = inhibition: % is scaled to controls: 0 for no effect and ±100 for the full control effect
Results filed as inconclusive are left out.
Can you tell me activity change, negative = inhibition for the items I'm about to list?
Report as a plain number; the unit % is understood.

Prompt line: Dear colleague, I am looking for the recorded activity change, negative = inhibition of the following molecule: CC(=O)OCC(=O)[C@@]1(O)[C@H](C)C[C@@H]2[C@H]3CCC4=CC(=O)C=C[C@]4(C)[C@]3(F)[C@@H](O)C[C@@]21C
Response line: -3.21

Prompt line: Dear colleague, I am looking for the recorded activity change, negative = inhibition of the following molecule: CN1CCCN([C@@H](c2ccccc2)c2ccc(Cl)cc2)CC1
Response line: -4.42

Prompt line: Dear colleague, I am looking for the recorded activity change, negative = inhibition of the following molecule: CC1(C)S[C@@H]2[C@H](NC(=O)[C@@H](N)c3ccccc3)C(=O)N2[C@H]1C(=O)O[C@H]1OC(=O)c2ccccc21
Response line: -2.68

Prompt line: Dear colleague, I am looking for the recorded activity change, negative = inhibition of the following molecule: CO[C@]1(NC(=O)Cc2cccs2)C(=O)N2C(C(=O)O)=C(COC(N)=O)CS[C@H]21
Response line: 2.57

Prompt line: Dear colleague, I am looking for the recorded activity change, negative = inhibition of the following molecule: C[C@@H]1[C@H](C)CC[C@@]2(C(=O)O)CC[C@]3(C)C(=CC[C@H]4[C@@]5(C)CC[C@@H](O)C(C)(C)[C@@H]5CC[C@@]43C)[C@@H]12
Response line: -4.31

Prompt line: Dear colleague, I am looking for the recorded activity change, negative = inhibition of the following molecule: C[C@H](N[C@@H](C)COc1ccccc1)[C@H](O)c1ccc(O)cc1
Response line: 0.23

Prompt line: Dear colleague, I am looking for the recorded activity change, negative = inhibition of the following molecule: C#C[C@@]1(OC(C)=O)CC[C@@H]2[C@@H]3CCC4=C[C@@H](OC(C)=O)CC[C@H]4[C@H]3CC[C@]21C
Response line: -2.38

Prompt line: Dear colleague, I am looking for the recorded activity change, negative = inhibition of the following molecule: CCOC(=O)Oc1c(OC)cc(C(=O)O[C@H]2C[C@H]3CN4CCc5c([nH]c6cc(OC)ccc56)[C@@H]4C[C@H]3[C@@H](C(=O)OC)[C@@H]2OC)cc1OC
Response line: -4.31

====

biological target: Rap guanine nucleotide exchange factor 3 (Homo sapiens) (UniProt O95398); experiment: Counterscreen qHTS for agonist of cAMP-regulated guanine nucleotide exchange factor 3 (EPAC1) (AID 1645889); details: EPAC1 Rap1B-BODIPY-GDP exchange, fluorescence; series mostly up to 154 µM; also: % of control where 0% means no effect; nearly all actives have a fitted effect of over 40% in size
Results filed as inconclusive are left out. Active and inactive are the calls of the source. The call rests on the fitted dose curve; in most records, active means well fitted activation curve with a large enough effect; inconclusive means small, poorly fitted or top-dose-only effect, or another doubt; inactive means no such curve, though single readings can be large or run the other way.
measurement.kind: activation

INSERT INTO assay_data (compound, measured_target, result) VALUES
  ('O=S1(=O)CCN2C(Cc3ccc(SC(F)F)cc3)=CSC2=N1', 'Rap guanine nucleotide exchange factor 3 (Homo sapiens) (UniProt O95398)', 'inactive'),
  ('CC1(C(=O)NS(=O)(=O)c2ccc3ccccc3c2)CCN1C(=O)C1(c2ccc(Cl)cc2)CCC1 (configuration not stated)', 'Rap guanine nucleotide exchange factor 3 (Homo sapiens) (UniProt O95398)', 'inactive'),
  ('O=C(NCc1ccncc1)C1Cc2c(-c3ccccc3Oc3ccccc3)ccnc2O1 (configuration not stated)', 'Rap guanine nucleotide exchange factor 3 (Homo sapiens) (UniProt O95398)', 'inactive'),
  ('O=C(O)CN1C(=O)/C(=C\c2cccc(OCc3ccc(Cl)cc3Cl)c2)SC1=S', 'Rap guanine nucleotide exchange factor 3 (Homo sapiens) (UniProt O95398)', '8.88% [at 30.8 µM] (inactive)'),
  ('NNC(=O)c1cccc(COCC(F)(F)C(F)F)c1', 'Rap guanine nucleotide exchange factor 3 (Homo sapiens) (UniProt O95398)', 'inactive');

Prompt line: Dear colleague, I am looking for the recorded activation of the following compound: COc1ccc(C(=O)NCCONC(=O)c2ccc(OC)cc2)cc1
Response line: inactive

Prompt line: Dear colleague, I am looking for the recorded activation of the following compound: COc1ccc(OCC(=O)Nc2ccccc2N2CCCCC2)cc1
Response line: 2.16% [at 30.8 µM] (inactive)

Prompt line: Dear colleague, I am looking for the recorded activation of the following compound: Cc1ccc(NC(=O)c2ccc(CN3CC(=O)N4CCCCC4C3=O)cc2)c(C)c1 (configuration not stated)
Response line: inactive

====

assay: qHTS Assay for Lipid Storage Modulators (AID 1519); details: Drosophila S3 cells, BODIPY lipid droplet/cell ratio, laser cytometry; measured here: lipid channel max response; cells loaded with oleic acid
Inconclusive results are not listed.
Can you tell me max response for the items I'm about to list?
Report as a plain number; the unit % is understood.

Prompt line: Dear colleague, I am looking for the recorded max response of the following compound: COC1CC(O[C@H]2/C(C)=C/CC3CC(C[C@]4(CCC(C)C(C5CCCCC5)O4)O3)OC(=O)[C@H]3C=C(C)/C(=N/O)C4OC/C(=C\C=C\[C@@H]2C)[C@@]43O)OC(C)C1O (some centres undefined)
Response line: -0.335

Prompt line: Dear colleague, I am looking for the recorded max response of the following compound: CC12CCC3C(=CCc4cc(O)ccc43)C1CCC2=O (centres undefined)
Response line: -6.28

Prompt line: Dear colleague, I am looking for the recorded max response of the following compound: CN1CCCN([C@@H](c2ccccc2)c2ccc(Cl)cc2)CC1
Response line: 1.38

Prompt line: Dear colleague, I am looking for the recorded max response of the following compound: O=C(O)c1cc2ccccc2c(Cc2cc3ccccc3c(C(=O)O)c2O)c1O (tested in a mixture with another compound)
Response line: -4.55

Prompt line: Dear colleague, I am looking for the recorded max response of the following compound: COc1ccc2c(c1)CCC1C2CC[C@@]2(C)C(O)CCC12 (some centres undefined)
Response line: 16.1

Prompt line: Dear colleague, I am looking for the recorded max response of the following compound: COc1ccc(C2CC(=O)c3c(O)cc(O[C@H]4OC(COC5OC(C)C(O)C(O)[C@@H]5O)C(O)C(O)C4O)cc3O2)cc1O (some centres undefined)
Response line: -1.01

Prompt line: Dear colleague, I am looking for the recorded max response of the following compound: COC(=O)C1C(O)CC[C@@H]2CN3CCc4c([nH]c5ccccc45)C3C[C@@H]12 (some centres undefined)
Response line: 26.3

Prompt line: Dear colleague, I am looking for the recorded max response of the following compound: Nc1nc(O)c2ncn([C@H]3CC[C@@H](CO)O3)c2n1
Response line: 2.95

Prompt line: Dear colleague, I am looking for the recorded max response of the following compound: CN1CCN([C@@H](c2ccccc2)c2ccc(Cl)cc2)CC1
Response line: -18.7

Prompt line: Dear colleague, I am looking for the recorded max response of the following compound: CN(C/C=C\c1ccccc1)Cc1cccc2ccccc12
Response line: -23.6

Prompt line: Dear colleague, I am looking for the recorded max response of the following compound: COc1cc(N)c(Cl)cc1C(=O)N[C@H]1CCN(CCCOc2ccc(F)cc2)C[C@H]1OC
Response line: 0.873

Prompt line: Dear colleague, I am looking for the recorded max response of the following compound: CC(C)C(C)/C=C/C(C)C1CCC2C3=CC=C4CC(O)CCC4(C)C3CCC21C (centres undefined)
Response line: 15.2

Prompt line: Dear colleague, I am looking for the recorded max response of the following compound: CC(=C(CCOP(=O)(O)O)SC(=O)c1ccccc1)N(C=O)Cc1cnc(C)nc1N
Response line: -2.64

Prompt line: Dear colleague, I am looking for the recorded max response of the following compound: CCC1OC(=O)C(C)[C@@H](O[C@H]2C[C@@](C)(OC)C(O)C(C)O2)C(C)[C@@H](O[C@@H]2OC(C)CC(N(C)C)C2O)[C@@](C)(O)CC(C)C(=O)[C@@H](C)C(O)[C@]1(C)O (some centres undefined)
Response line: 17.2

Prompt line: Dear colleague, I am looking for the recorded max response of the following compound: CC(=O)C1CCC2C3CC=C4CC(O)CC[C@@]4(C)C3CC[C@]12C (some centres undefined)
Response line: 18.4

Prompt line: Dear colleague, I am looking for the recorded max response of the following compound: O=C(/C=C(\O)c1ccccc1)c1ccccc1O
Response line: -24.5

Prompt line: Dear colleague, I am looking for the recorded max response of the following compound: COc1cccc(/C=C/C(=O)O)c1C(C)C
Response line: 26.7

Prompt line: Dear colleague, I am looking for the recorded max response of the following compound: CCC(=O)OCC(=O)C1(OC(=O)CC)C(C)CC2C3C(Cl)CC4=CC(=O)C=C[C@@]4(C)C3C(O)C[C@@]21C (some centres undefined)
Response line: 8.57

Prompt line: Dear colleague, I am looking for the recorded max response of the following compound: Cc1cc(O)c(C=O)c(O)c1C(=O)O
Response line: 11.5
